Hey, just so you know, these numbers are from PubChem BioAssay (NCI).

tested on: UACC-257 melanoma; assay: NCI-60 one-dose screen, 48 h (100 = growth as untreated, 0 = no growth, -100 = all killed); settings: 10 µM unless noted
About 83,000 compounds went through this panel and 20% of them were active in at least one assay; those are over-represented in the sample as a whole.
Where growth equals or exceeds 90%, the correct label is TRUE; where it does not, the label is FALSE.

These solved cases illustrate the format of a correct answer.
COc1cc(OC)cc(-c2ccc(-c3ccc(C(=N)N)cn3)s2)c1 ... TRUE
CN1CCN(Cc2ccc(NC(=O)c3nc4ccc5[nH]ncc5c4c4c3CCCC4)cc2C(F)(F)F)CC1 ... FALSE
N#C/C(=C\c1ccccc1Cl)c1cc2ccccc2[nH]1 ... TRUE
CN(C)CCCn1c2nc(=O)[nH]c(=O)c-2nc2cc(Cl)c(Cl)cc21 ... FALSE

Request: Evaluate Cc1c(O)c(O)cc2c3c(oc12)CC(c1ccc2c(c1)OCO2)CC3=O (stereo not drawn) : growth at minimum 90%?
Response: TRUE

Request: Evaluate "COc1ccc(C/C(C)=C(/c2ccc(OCCN3CCCC3)cc2)c2ccc(OC(=O)NCc3ccccc3)cc2)cc1" : growth at minimum 90%?
Response: TRUE

Request: Evaluate "Clc1ccc2c(c1)N(c1ncnc3ccc(-c4cnc5[nH]ccc5c4)cc13)CC2" : growth at minimum 90%?
Response: FALSE

----------
We begin with a simple list: items and their reported growth.
system: NCI-H322M lung; assay: NCI-60 one-dose screen, 48 h (100 = growth as untreated, 0 = no growth, -100 = all killed); conditions: 10 µM unless noted
The panel holds about 83,000 compounds, 20% with a hit somewhere; the sample as a whole holds those more often.
Respond numerically; units are % and should not be typed.

Solved cases below.
CCCCCCCCCCCCCCCC(=O)O[C@@H]1[C@@H](O)[C@@H](O)C([C@H](NC(=O)[C@@H]2C[C@@H](CCC)CN2C)[C@H](C)Cl)O[C@@H]1SC (some centres undefined) ... 97.8
C/C=C(\C)C(=O)N[C@H]1CC[C@]2(C)C3CC[C@@]4(C)C(CC[C@@H]4C(C)N(C)C)C3CCC2[C@H]1OC(C)=O (some centres undefined) ... -48.5
COC(=O)c1nc(-c2ccc(C)cc2)oc1Sc1ccc(C)cc1 ... 99.2
COc1ccc2c(c1)CCNC21C(=O)Nc2c(Br)cc(Br)cc21 (centres undefined) ... 90.3
COCCn1cc(-c2csc(-c3cn(C)c4ccc(F)cc34)n2)c2cccnc21 ... 75.7
Cc1ccc(NC(=O)c2sc3nc(C)c(C(=O)c4ccccc4)cc3c2N)cc1 ... 92.2
CCN1CCN(C(=O)[C@]23CC[C@@H](C)[C@H](C)[C@@H]2C2=CC[C@@H]4[C@@]5(C)CCC(=O)C(C)(C)[C@@H]5CC[C@@]4(C)[C@]2(C)CC3)CC1 ... 10.2
CCCN1C(=O)/C(=c2\sc3n(c2=O)C2C(NN=3)N(CC)C(=O)N2CC)c2ccccc21 (centres undefined) ... 53.1

Turning now to a further compound:
Request: Given the entry Cc1nc2sc(C(=O)Nc3cccc4ncccc34)c(N)c2cc1C(C)O (centres undefined) , report its measured growth.
Response: 79.7

----------
test system: MALME-3M melanoma; assay: NCI-60 one-dose screen, 48 h (100 = growth as untreated, 0 = no growth, -100 = all killed); settings: 10 µM unless noted
About 83,000 compounds went through this panel and 20% of them were active in at least one assay; those are over-represented in the sample as a whole.
We begin with a simple list: items and their reported growth.
Respond numerically; units are % and should not be typed.

Solved cases below.
[Cu+].[NH-][C@H]1C[N-]C(=O)[C@H]([C@H]2CCN=C(N)N2)[N-]C(=O)/C(=C\NC(N)=O)[N-]C(=O)[C@H](CNC(=O)C[C@@H](N)CCCN)[N-]C(=O)[C@H](CO)[N-]C1=O ... 101
CN1C(=O)/C(=C/c2ccc(C(=O)Nc3ncc(Cc4ccccc4Cl)s3)cc2)SC1=S ... 62.2
COc1ccc(-c2nc(Cl)c3c(C)nn(-c4ccc(F)cc4)c3n2)cc1 ... 115

Turning now to a further compound:
Request: Given the entry "COc1ccc(C(=O)N/N=C/c2ccc(O)cc2O)cc1Nc1ccnc(C(F)(F)F)c1" , report its measured growth.
Response: 9.52

----------
system: A549/ATCC NSCLC; test: NCI-60 one-dose screen, 48 h; conditions: 10 µM unless noted
This is part of a sample that, as a whole, favours compounds with a hit. Of some 83,000 tested, about 20% had one in any assay. Active and inactive are the calls of the source. How the source made its calls: active means growth percent below 10; inactive means the rest.
Hello, when you answer, please use one of the following outcomes: Yes (active), No (inactive)

These solved cases illustrate the format of a correct answer.
c1cc(NCCCCN2CCOCC2)c2ccc3c(ccc4c(NCCN5CCOCC5)ccnc43)c2n1 ... No
Cc1ccc(-c2nc3nc(-c4ccc(Cl)cc4)nc(N4CCCNCC4)c3o2)cc1 ... Yes
CC/C(=C(/c1ccc(O)cc1)c1ccc(OCCN2CCCCCC2)cc1)c1ccc(Cl)cc1 ... No
O=C1Nc2ccccc2/C1=C/c1cccn1CCCCCn1c2ccccc2c(=O)c2ccccc21 ... No

Request: Tell me the recorded outcome of this test for "O=C(Oc1ccc(CO[N+](=O)[O-])cc1)c1ccccc1" .
Response: Yes

----------
test system: NCI-H23 lung; assay: NCI-60 one-dose screen, 48 h (100 = growth as untreated, 0 = no growth, -100 = all killed); conditions: 10 µM unless noted
Compounds without any hit were thinned out: in the full panel of roughly 83,000, 20% have a hit.
QUANTITY: growth (%)
Respond numerically; units are % and should not be typed.

O=C1/C(=C/c2cn(-c3ccccc3)nc2-c2ccccc2)SC(=S)N1c1ccc(Cl)cc1 ... 87.5
CCN(C(=O)N1CCN(c2cc3c(cc2F)c(=O)c(C(=O)O)cn3C2CC2)CC1)c1nc(-c2ccccc2)cs1 ... 6.27
CCCCCCCCN(CCCCCCCC)CC(O)c1cc(Cl)ccc1OC (centres undefined) ... 56
N#C/C(=C\c1ccccc1Cl)c1cc2ccccc2[nH]1 ... 82.8

Request: Given the entry "Cc1ccc(C(=O)Nc2nc3c(s2)CN(Cc2ccccc2)CC3)cn1" , report its measured growth.
Response: 80.5

Request: Given the entry C/C=C(/C)C(=O)O[C@@H]1CC(C)(C)CC2C34OC(=O)[C@@]21CC[C@@]3(C)[C@]1(C)CCC2C(C)(C)C(=O)CC[C@]2(C)C1C[C@@H]4Cl (some centres undefined) , report its measured growth.
Response: 95.4

Request: Given the entry "CS(=O)(=O)Nc1cc(-c2ccc3ncnc(Nc4ccc(F)c(Cl)c4)c3c2)cnc1Cl" , report its measured growth.
Response: 16.9

Request: Given the entry "CCCCCCCCn1ccc2cc(NC(=O)CN3CCN(c4nc(C)cc(N5CCCCC5)n4)CC3)ccc21" , report its measured growth.
Response: 86

Request: Given the entry "C=C(C)[C@@H]1CC[C@]2(C)[C@H](CC(=O)N[C@H]3[C@@H]4C[C@](C)(C(=O)OC)CC[C@]4(C)CC[C@]32C)[C@@]1(C)CCC#N" , report its measured growth.
Response: 92.7

----------
system: UO-31 renal; test: NCI-60 one-dose screen, 48 h (100 = growth as untreated, 0 = no growth, -100 = all killed); details: 10 µM unless noted
Compounds without any hit were thinned out: in the full panel of roughly 83,000, 20% have a hit.
Where growth equals or exceeds 70%, the correct label is true; where it does not, the label is false.

These solved cases illustrate the format of a correct answer.
Cc1ccccc1SSc1ccccc1C ... true
CC(=NCc1ccccc1)c1ccc(O)cc1O ... true
O=C(N=Nc1c(O)[nH]c2ccccc12)Nc1ccc(Br)cc1 ... false
Nc1nc2ccccc2c2c(=O)c3ccc(Cl)cc3sc12 ... true
N=C(N)SCc1c2ccccc2c(CSC(=N)N)c2ccccc12 ... true

Request: Evaluate "OCc1cc(CN2CCCCC2)c(O)c2ncccc12" : growth at minimum 70%?
Response: false

Request: Evaluate CCCCCCCCCCCCCCCC(=O)O[C@@H]1[C@@H](O)[C@@H](O)C([C@H](NC(=O)[C@@H]2C[C@@H](CCC)CN2C)[C@H](C)Cl)O[C@@H]1SC (some centres undefined) : growth at minimum 70%?
Response: true

Request: Evaluate "CCN(CC)CCCN1C(=O)c2c(c(C)c3c(oc4cc(OC)ccc43)c2C)C1=O" : growth at minimum 70%?
Response: false

Request: Evaluate "COc1ccc(/C=C2/C(=O)N=C3N2NC(c2ccccc2)=CN3c2ccccc2)cc1" : growth at minimum 70%?
Response: true

Request: Evaluate "N=c1c2c(-c3ccccc3)c(-c3ccccc3)oc2ncn1NC(=O)c1cccnc1" : growth at minimum 70%?
Response: true

Request: Evaluate "O=c1ccc2nc(-c3ccccn3)nn(-c3ccccc3)c-2c1" : growth at minimum 70%?
Response: false

Request: Evaluate "Nn1c(-c2ccc(Cl)cc2)nc2c(-c3ccc(Cl)cc3)nc3ccc(Cl)cc3c2c1=O" : growth at minimum 70%?
Response: false
